# Tested on: HT-1080
# Assay details: Antiproliferative activity against human HT-1080 cells assessed as inhibition of cell growth incubated for 24 hrs by CCK-8 assay
# Type: functional, cell-based
# Experimental setup: HT-1080, 24 h
pIC50 for assorted compounds
Please treat pIC50 as minus the base-10 logarithm of the molar concentration.

Cc1ncsc1-c1ccc(CNC(=O)[C@@H]2C[C@@H](O)CN2C(=O)[C@@H](NC2CC3(CCN(C(=O)COc4ccc(C(c5ccc(Cl)cc5)N5CCN(C(=O)c6noc(C)c6[N+](=O)[O-])CC5)cc4)CC3)C2)C(C)(C)C)cc1 (some centres not stated): 5.87

Note: attention shifts to another entry.
QUERY: Entry Cc1ncsc1-c1ccc(CNC(=O)[C@@H]2C[C@@H](O)CN2C(=O)[C@@H](NC(=O)CCCCCCCCCCOc2ccc(C(c3ccc(Cl)cc3)N3CCN(C(=O)c4noc(C)c4[N+](=O)[O-])CC3)cc2)C(C)(C)C)cc1 (some centres not stated) has what pIC50?
RESULT: 6.05

###

# System: HT-1080
# Assay details: Antiproliferative activity against human HT-1080 cells assessed as inhibition of cell growth incubated for 24 hrs by CCK-8 assay
# Assay type: functional, cell-based
# Experimental setup: HT-1080, 24 h
Binary label based on IC50 with cut-off 2000 nM: below gives Satisfied, not below gives Not satisfied.

Recorded results for 3 molecules are shown here.
Cc1ncsc1-c1ccc(CNC(=O)[C@@H]2C[C@@H](O)CN2C(=O)[C@@H](NC(=O)C2CCN(CC3CCN(C(=O)COc4ccc(C(c5ccc(Cl)cc5)N5CCN(C(=O)c6noc(C)c6[N+](=O)[O-])CC5)cc4)CC3)CC2)C(C)(C)C)cc1 (stereo not given in full): Not satisfied
Cc1ncsc1-c1ccc(CNC(=O)[C@@H]2C[C@@H](O)CN2C(=O)[C@@H](NC(=O)CCCCCCCCCOc2ccc(C(c3ccc(Cl)cc3)N3CCN(C(=O)c4noc(C)c4[N+](=O)[O-])CC3)cc2)C(C)(C)C)cc1 (stereo not given in full): Satisfied
Cc1ncsc1-c1ccc(CNC(=O)[C@@H]2C[C@@H](O)CN2C(=O)[C@@H](NC(=O)CCCCCCOc2ccc(C(c3ccc(Cl)cc3)N3CCN(C(=O)c4noc(C)c4[N+](=O)[O-])CC3)cc2)C(C)(C)C)cc1 (stereo not given in full): Satisfied

QUERY: Item Cc1ncsc1-c1ccc(CNC(=O)[C@@H]2C[C@@H](O)CN2C(=O)[C@@H](NC(=O)COCCOc2ccc(C(c3ccc(Cl)cc3)N3CCN(C(=O)c4noc(C)c4[N+](=O)[O-])CC3)cc2)C(C)(C)C)cc1 (stereo not given in full) : IC50 beneath 2000 nM, strictly?
RESULT: Satisfied

QUERY: Same lookup for Cc1ncsc1-c1ccc(CNC(=O)[C@@H]2C[C@@H](O)CN2C(=O)[C@@H](NC(=O)COCCOCCOCCOCCOc2ccc(C(c3ccc(Cl)cc3)N3CCN(C(=O)c4noc(C)c4[N+](=O)[O-])CC3)cc2)C(C)(C)C)cc1 (stereo not given in full) , please.
RESULT: Not satisfied
